I'd appreciate it if you could supply Cell-free pIC50 ± SD, Trypsin-like values for the items below.
- test.system: T. cruzi proteasome trypsin-like activity (Trypanosoma cruzi, UniProt V5BCU3+V5BGL9)
- Sequence (V5BGL9 entry or part of it): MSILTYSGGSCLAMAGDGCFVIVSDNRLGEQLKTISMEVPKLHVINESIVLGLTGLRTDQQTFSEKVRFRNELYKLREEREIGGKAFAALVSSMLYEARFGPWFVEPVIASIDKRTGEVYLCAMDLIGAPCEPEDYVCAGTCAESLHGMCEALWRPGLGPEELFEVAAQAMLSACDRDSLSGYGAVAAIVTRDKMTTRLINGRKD
- Sequence (V5BCU3 entry or part of it): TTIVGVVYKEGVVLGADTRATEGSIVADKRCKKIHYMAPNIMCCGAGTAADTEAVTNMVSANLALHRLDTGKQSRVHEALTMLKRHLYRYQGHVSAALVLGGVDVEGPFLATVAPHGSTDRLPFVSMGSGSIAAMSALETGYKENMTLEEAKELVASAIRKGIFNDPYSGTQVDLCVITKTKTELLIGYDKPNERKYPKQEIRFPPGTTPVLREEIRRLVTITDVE
- protocol.description: Cell-free T. cruzi proteasome trypsin-like activity luminescence assay
- Type: biochemical
- condition.notes: n = 4; 15 μM Z-Leu-Arg-Arg-aminoluciferin
Non-standard residues stand in square brackets, D forms with d. Residues, ends and D or L forms follow the SMILES beside them. ξ: configuration not given here. *: point of attachment. Nva = CCC[C@H](N)C(=O)O; Cbz = O=C(OCc1ccccc1)*; ξL = CC(C)CC(N)C(=O)O
Answers are plain numbers, in M.

{"columns": ["compound", "test.system", "Cell-free pIC50 ± SD, Trypsin-like [M]"],
 "data": [
  ["CC(C)C[C@@H](C=O)NC(=O)[C@H](CC(C)C)NC(=O)[C@H](CC(C)C)NC(=O)OCc1ccccc1 [MG132] (Cbz-Leu-Leu-Leu-aldehyde)", "T. cruzi proteasome trypsin-like activity (Trypanosoma cruzi, UniProt V5BCU3+V5BGL9)", 4.88],
  ["CC[C@H](C)[C@H](NC(=O)[C@H]([C@@H](C)CC)N(C)C(C)=O)C(=O)N[C@H](C(=O)N[C@@H](CC(C)C)C(=O)[C@@]1(C)CO1)[C@@H](C)O", "T. cruzi proteasome trypsin-like activity (Trypanosoma cruzi, UniProt V5BCU3+V5BGL9)", 6.10],
  ["CC(C)C[C@H](NC(=O)CNC(=O)c1cc(Cl)ccc1Cl)B(O)O", "T. cruzi proteasome trypsin-like activity (Trypanosoma cruzi, UniProt V5BCU3+V5BGL9)", 5.51]
]}

Quick check: Cell-free pIC50 ± SD, Trypsin-like of CCC[C@@H](C=O)NC(=O)C(CC(C)C)NC(=O)[C@H](CC(C)C)NC(=O)OCc1ccccc1 (stereo partly drawn) [MG115] (Cbz-Leu-[ξL]-[Nva]-aldehyde) ?
4.87
